- SUBJECT OF TEST: bovine cardiac myofibrils (full-length cardiac myosin ATPase in the native sarcomere) (Bos taurus (Bovine))
- TEST NAME: Skinned bovine cardiac myofibril ATPase assay (PK/LDH-coupled)
- Assay type: biochemical
- TEST PARAMETERS: Ca2+ activating to 75% of maximal rate, concentration giving 15% inhibition
Recorded CDMF75 IC15 by entry
Reply numerically in µM, unit not repeated.

Guide cases for CDMF75 IC15, answers given:
The molecule O=C(N[C@@H]1CCc2cc(-c3noc(C(F)F)n3)ccc21)C1CCOC1 (stereo partly drawn) [Compound 294] showed CDMF75 IC15 equal to 15.6

Record O=C(N[C@@H]1CCc2cc(-c3noc(C(F)F)n3)ccc21)c1ccnc(CO)c1 [Compound 665] , field CDMF75 IC15: 0.4

Lab book: CDMF75 IC15 of CC(=O)N[C@@H]1COc2cc(-c3noc(C(F)F)n3)ccc21 [Compound 444] noted as 1.6

Notebook: [2H]C([2H])([2H])c1noc(-c2ccc3c(c2)OC[C@H]3NC(=O)c2nnn(C)n2)n1 [Compound 342] , CDMF75 IC15 read as 8.0

CDMF75 IC15 for Cc1cc(C(=O)N[C@@H]2COc3cc(-c4noc(C(F)F)n4)cnc32)ccn1 [Compound 196] is 4.5

Lab note: next molecule to report on.
// sample CC(C)c1nc(-c2ccc3c(c2)CC[C@H]3NC(=O)c2cn[nH]c2)no1 [Compound 488] , its CDMF75 IC15 was 1.1

###

Reported pIC50 is given for each of the following molecules.
- SUBJECT OF TEST: bovine cardiac myofibrils (full-length cardiac myosin ATPase in the native sarcomere) (Bos taurus (Bovine), UniProt Q9BE39)
- Sequence (Q9BE39 whole entry): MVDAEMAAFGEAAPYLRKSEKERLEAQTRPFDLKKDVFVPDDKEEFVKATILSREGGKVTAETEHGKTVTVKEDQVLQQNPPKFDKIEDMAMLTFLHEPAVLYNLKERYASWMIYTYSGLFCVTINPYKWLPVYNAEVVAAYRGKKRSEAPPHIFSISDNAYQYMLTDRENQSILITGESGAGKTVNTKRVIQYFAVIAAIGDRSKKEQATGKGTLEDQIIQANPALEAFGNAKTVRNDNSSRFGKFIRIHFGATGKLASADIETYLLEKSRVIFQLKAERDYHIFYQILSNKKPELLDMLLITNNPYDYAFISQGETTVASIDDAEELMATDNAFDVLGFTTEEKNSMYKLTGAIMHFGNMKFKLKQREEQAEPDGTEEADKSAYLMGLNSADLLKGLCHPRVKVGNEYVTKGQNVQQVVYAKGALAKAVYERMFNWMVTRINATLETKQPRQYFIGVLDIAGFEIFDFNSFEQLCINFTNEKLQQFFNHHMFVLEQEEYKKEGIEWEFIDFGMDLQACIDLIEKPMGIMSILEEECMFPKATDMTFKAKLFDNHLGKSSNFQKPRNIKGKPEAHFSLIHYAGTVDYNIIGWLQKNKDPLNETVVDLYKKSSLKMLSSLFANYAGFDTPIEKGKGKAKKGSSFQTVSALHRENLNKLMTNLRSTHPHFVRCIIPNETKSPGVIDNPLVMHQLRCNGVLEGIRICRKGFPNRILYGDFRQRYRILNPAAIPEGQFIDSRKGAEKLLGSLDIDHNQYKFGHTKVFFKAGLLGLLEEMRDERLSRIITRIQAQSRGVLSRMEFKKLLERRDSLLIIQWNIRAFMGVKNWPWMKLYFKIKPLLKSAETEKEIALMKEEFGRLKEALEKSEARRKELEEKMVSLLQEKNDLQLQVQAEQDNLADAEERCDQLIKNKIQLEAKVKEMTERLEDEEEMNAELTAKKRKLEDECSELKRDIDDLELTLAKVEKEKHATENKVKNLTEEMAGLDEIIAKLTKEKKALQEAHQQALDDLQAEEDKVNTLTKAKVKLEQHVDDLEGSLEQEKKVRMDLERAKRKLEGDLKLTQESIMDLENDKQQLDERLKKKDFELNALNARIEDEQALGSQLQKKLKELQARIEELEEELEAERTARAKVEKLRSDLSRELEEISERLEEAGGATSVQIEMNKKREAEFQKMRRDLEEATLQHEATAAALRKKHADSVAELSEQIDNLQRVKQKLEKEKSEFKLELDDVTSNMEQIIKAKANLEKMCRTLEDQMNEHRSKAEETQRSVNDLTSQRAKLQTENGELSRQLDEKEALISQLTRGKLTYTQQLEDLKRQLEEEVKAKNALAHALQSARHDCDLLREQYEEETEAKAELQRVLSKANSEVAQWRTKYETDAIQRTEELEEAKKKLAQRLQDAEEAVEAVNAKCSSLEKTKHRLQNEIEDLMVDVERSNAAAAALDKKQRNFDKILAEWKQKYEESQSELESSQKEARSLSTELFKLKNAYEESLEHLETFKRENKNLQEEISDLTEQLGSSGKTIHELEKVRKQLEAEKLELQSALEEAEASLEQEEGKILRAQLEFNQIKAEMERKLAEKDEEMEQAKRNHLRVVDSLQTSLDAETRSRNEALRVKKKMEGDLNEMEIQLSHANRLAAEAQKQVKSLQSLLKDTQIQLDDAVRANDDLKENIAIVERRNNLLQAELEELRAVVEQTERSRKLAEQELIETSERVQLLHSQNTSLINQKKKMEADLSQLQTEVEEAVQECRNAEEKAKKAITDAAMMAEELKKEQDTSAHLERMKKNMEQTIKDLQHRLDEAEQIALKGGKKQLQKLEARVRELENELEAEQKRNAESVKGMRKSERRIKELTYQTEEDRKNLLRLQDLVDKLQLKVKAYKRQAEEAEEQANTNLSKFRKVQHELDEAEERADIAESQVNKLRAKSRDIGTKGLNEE
- Sequence (P85100 whole entry partner): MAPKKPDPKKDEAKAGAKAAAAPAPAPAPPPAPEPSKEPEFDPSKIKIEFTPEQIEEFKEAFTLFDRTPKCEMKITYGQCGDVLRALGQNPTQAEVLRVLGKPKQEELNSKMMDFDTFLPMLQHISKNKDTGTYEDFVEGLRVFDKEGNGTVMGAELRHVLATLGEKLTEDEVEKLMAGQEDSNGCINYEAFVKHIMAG
- Sequence (Q3SZE5 whole entry partner): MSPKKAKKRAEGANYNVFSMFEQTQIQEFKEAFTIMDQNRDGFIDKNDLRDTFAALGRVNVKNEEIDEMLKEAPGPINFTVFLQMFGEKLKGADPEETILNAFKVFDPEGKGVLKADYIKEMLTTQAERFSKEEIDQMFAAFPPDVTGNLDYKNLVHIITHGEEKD
- TEST NAME: Skinned bovine cardiac myofibril ATPase assay (PK/LDH-coupled)
- TEST PARAMETERS: Ca2+ activating to 75% of maximal rate, read-out: CDMF75 IC50
Convention used: pIC50 is expressed as -log10 of the molar concentration.

Answered examples (3):
For reference, reported pIC50 for COCc1nc(-c2ccc3c(c2)CC[C@H]3NC(=O)c2cccc(CO)c2F)no1 [Compound 670] stands at 4.58

molecule CCc1nc(-c2ccc3c(c2)CC[C@H]3NC(=O)c2cnn(CC(=O)O)c2)no1 [Compound 532] , pIC50 observed: 5.26

Briefly, pIC50 measured for Cc1cnoc1C(=O)N[C@@H]1CCc2cc(-c3noc(C(C)C)n3)ccc21 [Compound 116] : 5.82

Others:
Item: O=C(NC1CCc2cc(-c3noc(C(F)F)n3)ccc21)c1cnc(Cl)s1 (centres unmarked) [Compound 8] | pIC50: 5.85

So for CCc1nc(-c2ccc3c(c2)CC[C@H]3NC(=O)c2cccc(C=O)c2)no1 [Compound 658] , the logged pIC50 turned out to be 6.05

// field: pIC50; key: CCc1nc(-c2ccc3c(c2)CC[C@H]3NC(=O)c2nonc2C)no1 [Compound 633] ; value = 6.10

pIC50 reading for Cc1ccnc(-c2ccc3c(c2)CC[C@H]3NC(=O)c2ccnn2C)c1 [Compound 380] : 4.99

Consider Cc1cc(-c2ccc3c(c2)CC[C@H]3NC(=O)c2ocnc2C)no1 [Compound 418] . Its measured pIC50 is 5.92

###

Here the recorded CDMF75 IC15 is given for each entry.
- SUBJECT OF TEST: bovine cardiac myofibrils (full-length cardiac myosin ATPase in the native sarcomere) (Bos taurus (Bovine))
- TEST NAME: Skinned bovine cardiac myofibril ATPase assay (PK/LDH-coupled)
- Type: biochemical
- TEST PARAMETERS: Ca2+ activating to 75% of maximal rate, concentration giving 15% inhibition
Respond numerically; units are nM and should not be typed.

`CCc1nc(-c2ccc3c(c2)CC[C@H]3NC(=O)c2cnn(CC(=O)OC)c2)no1` has a reported CDMF75 IC15 of 1100

Form: molecule = `CCc1nc(-c2ccc3c(c2)CC[C@H]3NC(=O)c2ccncn2)no1` ; CDMF75 IC15 = 500

`CCc1nc(-c2ccc3c(c2)CC[C@H]3NC(=O)c2cnc(O)o2)no1` yielded CDMF75 IC15 of 1000

Lab note: measured CDMF75 IC15 of `CCc1nc(-c2ccc3c(c2)CC[C@H]3NC(=O)C2(C)CC2)no1` was 1700

The reported value for `Cc1cnoc1C(=O)N[C@@H]1CCc2cc(-c3noc(C4CC4)n3)ccc21` in terms of CDMF75 IC15 is 300

***
`Cc1nc(-c2ccc3c(c2)CC[C@H]3NC(=O)c2cc(C(F)F)ccn2)no1` yielded CDMF75 IC15 of 700
